Target: PKC-ζ (Homo sapiens, UniProt Q05513)
Sequence (Q05513 1-592): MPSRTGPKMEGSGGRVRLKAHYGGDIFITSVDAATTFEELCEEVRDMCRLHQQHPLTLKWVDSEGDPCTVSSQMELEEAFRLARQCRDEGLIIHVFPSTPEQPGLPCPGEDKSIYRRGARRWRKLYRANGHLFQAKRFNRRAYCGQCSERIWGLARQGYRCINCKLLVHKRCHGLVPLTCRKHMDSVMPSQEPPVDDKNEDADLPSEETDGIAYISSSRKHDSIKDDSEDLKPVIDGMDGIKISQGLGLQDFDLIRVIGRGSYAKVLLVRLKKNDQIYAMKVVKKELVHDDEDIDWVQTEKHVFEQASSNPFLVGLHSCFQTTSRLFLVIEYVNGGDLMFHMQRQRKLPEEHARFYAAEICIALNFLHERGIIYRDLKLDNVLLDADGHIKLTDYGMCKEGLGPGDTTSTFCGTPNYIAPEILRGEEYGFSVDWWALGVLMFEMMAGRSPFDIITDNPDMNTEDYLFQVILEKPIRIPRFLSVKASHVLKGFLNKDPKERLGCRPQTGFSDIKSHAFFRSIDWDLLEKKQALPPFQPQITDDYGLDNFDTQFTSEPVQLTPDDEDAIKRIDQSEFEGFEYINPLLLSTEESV
Test: ELISA-based competitive binding assay with purified PKC isoform
Set-up: key: —: no detectable affinity; Low to very low affinity at 10X or 20X or both PRE concentrations in at least one cell line in the cell extract assay; Low affinity in purified isoform assay.; Moderate affinity at 10X or 20X or both PRE concentrations in at least one cell line in the cell extract assay.; High affinity at 10X or 20X or both PRE concentrations in at least one cell line in the cell extract assay; High affinity in purified isoform assay
Conditions: Purified isoform
Reported metric: Affinity for PKC isoform ζ

Known Affinity for PKC isoform ζ results, listed for orientation:
>  <Substance>
Ac-RDAQNLI-NH2 [PRE 13]

>  <Result>
—

$$$$
>  <Substance>
Ac-KDAQNLI-NH2 [PRE 12]

>  <Result>
—

$$$$
>  <Substance>
ILEDKGGDAQNLIGISI [PRE 8]

>  <Result>
—

$$$$
>  <Substance>
Ac-ISIGILQNADK-NH2 (not fully specified; printed as Ac-ISIGILQNADK-NH2) [PRE 7]

>  <Result>
—

$$$$
>  <Substance>
Ac-ISIGILNQADK-NH2 [PRE 10]

>  <Result>
—

$$$$

// switching to the query substance
Notebook: Ac-KDANQLIGISI-NH2 [PRE 6] , Affinity for PKC isoform ζ read as —

Values from patent US20110039770A1
